# assayedSystem: Serotoninergic 5-HT2B (Homo sapiens)
# Sequence (P41595 whole entry): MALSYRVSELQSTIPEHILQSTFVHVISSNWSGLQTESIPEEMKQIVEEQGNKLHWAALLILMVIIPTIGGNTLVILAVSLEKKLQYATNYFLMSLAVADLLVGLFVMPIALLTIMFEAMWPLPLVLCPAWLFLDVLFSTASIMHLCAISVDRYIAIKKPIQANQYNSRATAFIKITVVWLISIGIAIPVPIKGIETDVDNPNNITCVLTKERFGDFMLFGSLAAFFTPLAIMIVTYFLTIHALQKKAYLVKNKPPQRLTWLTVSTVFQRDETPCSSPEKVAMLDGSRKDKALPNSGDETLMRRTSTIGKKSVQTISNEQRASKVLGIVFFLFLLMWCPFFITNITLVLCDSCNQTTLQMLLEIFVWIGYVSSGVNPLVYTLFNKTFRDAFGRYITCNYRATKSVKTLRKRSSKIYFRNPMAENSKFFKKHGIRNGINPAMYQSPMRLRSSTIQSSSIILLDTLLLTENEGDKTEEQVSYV
# testName: competitive radioligand binding, Serotoninergic 5-HT2B
# statedConditions: compound concentration of 1 μM
Structures can show the parent of a compound that is named as a salt.
Measured radio-labelled ligand displacement, Serotoninergic 5-HT2B values are reported for all entries that follow.
Write the value in % as a bare number.

Reference set (5 entries):
compound	val
Cc1ccc(CCCn2c3c(c4c(Cl)csc42)CN(C)CC3)cc1 [3.12(5)•HCl]	63
CN1CCc2c(c3cc(Cl)sc3n2CCCc2cccc(F)c2)C1 [3.12(6)•HCl]	91
Cc1cc2c3c(n(CC(O)c4ccccc4)c2s1)CCN(C)C3.Cl (stereo not drawn) [3.7(1)•HCl]	63
Cc1cc2c3c(n(CCc4ccc(Cl)cc4)c2s1)C(C)CN(C)C3 (stereo not drawn) [3.6(4)•HCl]	78
Cc1csc2c1c1c(n2CCCc2ccccc2)CCN(C)C1 [3.12(1)•HCl]	91

Continue with the compound presented below.
Report radio-labelled ligand displacement, Serotoninergic 5-HT2B for Cc1ccc(C=CCn2c3c(c4cc(C)sc42)CN(C)CC3)cc1 [3.11(2)•HCl] tested on Serotoninergic 5-HT2B (Homo sapiens).
89

###

# assayedSystem: Serotoninergic 5-HT6 (Homo sapiens)
# Sequence (P50406 whole entry): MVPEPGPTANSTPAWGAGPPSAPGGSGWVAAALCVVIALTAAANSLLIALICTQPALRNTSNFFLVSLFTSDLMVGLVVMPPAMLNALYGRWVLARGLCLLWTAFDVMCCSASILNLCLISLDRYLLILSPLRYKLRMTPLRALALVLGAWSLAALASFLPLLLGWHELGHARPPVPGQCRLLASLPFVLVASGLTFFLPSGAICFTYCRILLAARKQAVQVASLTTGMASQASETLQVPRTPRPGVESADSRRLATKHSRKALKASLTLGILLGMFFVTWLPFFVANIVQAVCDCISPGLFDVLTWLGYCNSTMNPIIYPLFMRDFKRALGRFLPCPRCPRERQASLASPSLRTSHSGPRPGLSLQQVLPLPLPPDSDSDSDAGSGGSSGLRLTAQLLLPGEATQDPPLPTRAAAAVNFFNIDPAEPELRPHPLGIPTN
# testName: competitive radioligand binding, Serotoninergic 5-HT6
# statedConditions: compound concentration of 1 μM; read-out: radio-labelled ligand displacement, Serotoninergic 5-HT6
Structures can show the parent of a compound that is named as a salt.
Use 80% as the dividing line for inhibition at 1 µM, with the line itself on the Y side and lower values as N.

Field: example entries. Status: answers known.
molecule	assayedSystem	assignedLabel
Cc1ccc(Cn2c3c(c4sc(Cl)cc42)C(C)N(C)C(C)C3)cn1 (stereo not drawn) [2.5(4)•HCl]	Serotoninergic 5-HT6 (Homo sapiens)	Y
Cc1cc2c3c(n(Cc4ccccc4)c2s1)CC1CCC3N1C (stereo not drawn) [3.13(1)•HCl]	Serotoninergic 5-HT6 (Homo sapiens)	N
Cc1cc2c(s1)c1c(n2CCc2ccccc2)CCN(C)C1.Cl [2.6(1)•HCl]	Serotoninergic 5-HT6 (Homo sapiens)	Y
Cc1ccc(CCCn2c3c(c4scc(Cl)c42)CN(C)CC3)cn1 [2.12(5)•HCl]	Serotoninergic 5-HT6 (Homo sapiens)	Y
Cc1cc2c3c(n(CCc4ccccc4)c2s1)CCN(C)C3.Cl [3.6(1)•HCl]	Serotoninergic 5-HT6 (Homo sapiens)	Y

Pending molecule:
Please tell me: is the molecule CC1Cc2c(c3sc(Cl)cc3n2C#Cc2cccc(F)c2)C(C)N1C (stereo not drawn) [2.10(3)•HCl] at or over 80% in terms of inhibition at 1 µM?
N

###

# assayedSystem: Dopaminergic D1 (Homo sapiens)
# Sequence (P21728 whole entry): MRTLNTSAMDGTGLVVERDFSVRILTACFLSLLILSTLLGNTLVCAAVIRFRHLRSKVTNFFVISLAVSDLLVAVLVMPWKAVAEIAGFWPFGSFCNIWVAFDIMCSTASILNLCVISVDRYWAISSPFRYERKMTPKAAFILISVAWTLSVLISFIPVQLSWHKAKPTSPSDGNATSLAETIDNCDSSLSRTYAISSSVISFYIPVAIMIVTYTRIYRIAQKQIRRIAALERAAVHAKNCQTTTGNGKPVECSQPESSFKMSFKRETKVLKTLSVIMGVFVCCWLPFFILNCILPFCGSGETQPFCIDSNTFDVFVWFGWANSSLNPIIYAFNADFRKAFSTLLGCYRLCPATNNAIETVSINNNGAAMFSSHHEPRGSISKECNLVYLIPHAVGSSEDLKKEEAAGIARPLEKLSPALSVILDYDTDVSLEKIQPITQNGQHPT
# testName: competitive radioligand binding, Dopaminergic D1
# statedConditions: compound concentration of 1 μM
Where a name gives a salt, the structure may show the parent alone.
Binary classification by radio-labelled ligand displacement, Dopaminergic D1, with 60% as an inclusive lower bound for MET; all other cases are NOT MET.

Solved cases below.
compound	assignedLabel
Cc1cc2c3c(n(CCc4ccc(Cl)cc4)c2s1)C(C)CN(C)C3 (stereo not drawn) [3.6(4)•HCl]	NOT MET
Cc1ccc(CCCn2c3c(c4c(Cl)csc42)CN(C)CC3)cc1 [3.12(5)•HCl]	NOT MET
Cc1ccc(C=CCn2c3c(c4cc(C)sc42)CN(C)CC3)cc1 [3.11(2)•HCl]	NOT MET
Cc1csc2c1c1c(n2CCCc2ccccc2)CCN(C)C1 [3.12(1)•HCl]	NOT MET
CN1CCc2c(c3cc(Cl)sc3n2CCCc2cccc(F)c2)C1 [3.12(6)•HCl]	MET

Okay, now this compound:
# bool: radio-labelled ligand displacement, Dopaminergic D1 of Cc1cc2c3c(n(CC(O)c4ccccc4)c2s1)CCN(C)C3.Cl (stereo not drawn) [3.7(1)•HCl] >= 60%
NOT MET

###

# System: Adrenergic α1A
# testName: competitive radioligand binding, Adrenergic α1A
# statedConditions: compound concentration of 1 μM
Structures can show the parent of a compound that is named as a salt.
Kindly return 1.0 if reported radio-labelled ligand displacement, Adrenergic α1A is no lower than 20%; return 0.0 if it is lower.

Example results:
compound	assignedLabel
Cc1cc2c(s1)c1c(n2-c2cccc(F)c2)CCN(C)C1 [2.4(3)•HCl]	0.0
Cc1ccc(Cn2c3c(c4sc(Cl)cc42)C(C)N(C)C(C)C3)cn1 (centres unmarked) [2.5(4)•HCl]	1.0
CC1Cc2c(c3sc(Cl)cc3n2C#Cc2cccc(F)c2)C(C)N1C (centres unmarked) [2.10(3)•HCl]	1.0

Record Cc1cc2c3c(n(CC(O)c4ccccc4)c2s1)CCN(C)C3.Cl (centres unmarked) [3.7(1)•HCl] ; criterion: radio-labelled ligand displacement, Adrenergic α1A no lower than 20%. Met?
1.0

Determine whether measured radio-labelled ligand displacement, Adrenergic α1A meets or exceeds 20% for Cc1cc2c(s1)c1c(n2CCc2ccccc2)CCN(C)C1.Cl [2.6(1)•HCl]
1.0

###

Recorded measurements of inhibition at 1 µM, one per entry
# assayedSystem: Histaminergic H2 (Homo sapiens)
# testName: competitive radioligand binding, Histaminergic H2
# statedConditions: compound concentration of 1 μM; read-out: radio-labelled ligand displacement, Histaminergic H2
Structures can show the parent of a compound that is named as a salt.
Dear colleague, please send the value followed by its unit.

compound	inhibition at 1 µM
Cc1cc2c3c(n(Cc4ccccc4)c2s1)CCN(C)C3.Cl [3.5(1)•HCl]	91%
CC1Cc2c(c3sc(Cl)cc3n2C#Cc2cccc(F)c2)C(C)N1C (centres unmarked) [2.10(3)•HCl]	33%
Cc1cc2c3c(n(Cc4ccccc4)c2s1)CC1CCC3N1C (centres unmarked) [3.13(1)•HCl]	70%
Cc1ccc(CCCn2c3c(c4scc(Cl)c42)CN(C)CC3)cn1 [2.12(5)•HCl]	96%

Okay, now this compound:
Using the record for Cc1cc2c(s1)c1c(n2Cc2ccccc2)CCN(C)C1.Cl [2.5(1)•HCl] , report its inhibition at 1 µM.
44%

###

# assayedSystem: Histaminergic H1 (Homo sapiens)
# Sequence (P35367 whole entry): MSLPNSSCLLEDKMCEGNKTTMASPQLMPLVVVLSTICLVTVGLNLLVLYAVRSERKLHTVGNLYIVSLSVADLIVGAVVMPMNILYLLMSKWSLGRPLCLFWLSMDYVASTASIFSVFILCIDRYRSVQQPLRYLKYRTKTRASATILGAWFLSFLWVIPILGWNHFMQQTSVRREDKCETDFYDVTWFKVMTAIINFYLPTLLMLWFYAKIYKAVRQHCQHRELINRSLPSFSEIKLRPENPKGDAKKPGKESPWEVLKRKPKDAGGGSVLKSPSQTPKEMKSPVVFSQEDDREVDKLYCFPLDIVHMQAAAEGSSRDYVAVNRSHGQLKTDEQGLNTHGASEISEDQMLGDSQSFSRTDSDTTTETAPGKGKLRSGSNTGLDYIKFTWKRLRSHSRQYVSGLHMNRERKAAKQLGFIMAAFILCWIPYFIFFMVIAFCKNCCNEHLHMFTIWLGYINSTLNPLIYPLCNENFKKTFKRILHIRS
# testName: competitive radioligand binding, Histaminergic H1
# statedConditions: compound concentration of 1 μM; read-out: radio-labelled ligand displacement, Histaminergic H1
Where a name gives a salt, the structure may show the parent alone.
measure: inhibition at 1 µM (%)
Numbers only here, please. The scale is %.

Solved cases below.
compound	inhibition at 1 µM (%)
CC1Cc2c(c3sc(Cl)cc3n2C#Cc2cccc(F)c2)C(C)N1C (centres unmarked) [2.10(3)•HCl]	65
Cc1cc2c(s1)c1c(n2Cc2ccccc2)CCN(C)C1.Cl [2.5(1)•HCl]	96
Cc1cc2c(s1)c1c(n2CCc2ccccc2)CCN(C)C1.Cl [2.6(1)•HCl]	97

Value lookup for inhibition at 1 µM; key = Cc1cc2c3c(n(Cc4ccccc4)c2s1)CC1CCC3N1C (centres unmarked) [3.13(1)•HCl]
88

# lookup: inhibition at 1 µM of Cc1cc2c3c(n(CCc4ccccc4)c2s1)CCN(C)C3.Cl [3.6(1)•HCl]
98

###

# System: Serotoninergic 5-HT1B
# testName: competitive radioligand binding, Serotoninergic 5-HT1B
# statedConditions: compound concentration of 1 μM
Counter-ions that a name gives are not always drawn.
Mark NO for radio-labelled ligand displacement, Serotoninergic 5-HT1B values under 30%, and YES for everything at or above.

These solved cases illustrate the format of a correct answer.
compound	assignedLabel
Cc1ccc(Cn2c3c(c4sc(Cl)cc42)C(C)N(C)C(C)C3)cn1 (stereo not drawn) [2.5(4)•HCl]	NO
CC1Cc2c(c3sc(Cl)cc3n2C#Cc2cccc(F)c2)C(C)N1C (stereo not drawn) [2.10(3)•HCl]	NO

Answer whether radio-labelled ligand displacement, Serotoninergic 5-HT1B of Cc1cc2c(s1)c1c(n2CCc2ccccc2)CCN(C)C1.Cl [2.6(1)•HCl] is greater than or equal to 30%.
NO

Would you say CN1CCc2c(c3cc(Cl)sc3n2CCCc2cccc(F)c2)C1 [3.12(6)•HCl] shows radio-labelled ligand displacement, Serotoninergic 5-HT1B at minimum 30%?
YES

Check the entry Cc1cc2c(s1)c1c(n2-c2cccc(F)c2)CCN(C)C1 [2.4(3)•HCl] : does radio-labelled ligand displacement, Serotoninergic 5-HT1B equal or exceed 30%?
NO

###

# assayedSystem: Histaminergic H2 (Homo sapiens, UniProt P25021)
# Sequence (P25021 whole entry): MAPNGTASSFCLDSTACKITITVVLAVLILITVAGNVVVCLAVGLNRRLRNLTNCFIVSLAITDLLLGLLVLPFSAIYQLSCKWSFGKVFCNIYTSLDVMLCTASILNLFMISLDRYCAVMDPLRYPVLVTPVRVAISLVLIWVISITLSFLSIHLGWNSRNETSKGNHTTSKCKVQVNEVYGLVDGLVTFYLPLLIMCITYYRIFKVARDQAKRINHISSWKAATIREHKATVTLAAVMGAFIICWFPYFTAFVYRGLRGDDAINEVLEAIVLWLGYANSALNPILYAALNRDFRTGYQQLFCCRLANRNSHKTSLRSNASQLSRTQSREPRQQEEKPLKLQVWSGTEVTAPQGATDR
# testName: competitive radioligand binding, Histaminergic H2
# statedConditions: compound concentration of 1 μM; read-out: radio-labelled ligand displacement, Histaminergic H2
Where a name gives a salt, the structure may show the parent alone.
measure: inhibition at 1 µM (%)
Value expressed in %; do not type the unit.

molecule	assayedSystem	unitAbbrev	inhibition at 1 µM
Cc1cc2c(s1)c1c(n2-c2cccc(F)c2)CCN(C)C1 [2.4(3)•HCl]	Histaminergic H2 (Homo sapiens, UniProt P25021)	%	29
Cc1cc2c3c(n(CCc4ccccc4)c2s1)CCN(C)C3.Cl [3.6(1)•HCl]	Histaminergic H2 (Homo sapiens, UniProt P25021)	%	96
Cc1cc2c(s1)c1c(n2CCc2ccccc2)CCN(C)C1.Cl [2.6(1)•HCl]	Histaminergic H2 (Homo sapiens, UniProt P25021)	%	56

Reported inhibition at 1 µM for Cc1ccc(Cn2c3c(c4sc(Cl)cc42)C(C)N(C)C(C)C3)cn1 (stereo not shown) [2.5(4)•HCl] : what is it?
83
